From: patent US11965039B2

# STUDY_TARGET: T1, Human C3 (Complement tech cat #A113c) (human, UniProt P01024 23-1663)
# T1 construct: Purified protein immobilised by amine coupling in the SPR assay; in the haemolysis assay it is the C3 of diluted human serum; Native C3 consists of a beta and an alpha chain cut from one precursor; also called C3 protein
# T1 sequence (P01024 23-1663 limits assumed): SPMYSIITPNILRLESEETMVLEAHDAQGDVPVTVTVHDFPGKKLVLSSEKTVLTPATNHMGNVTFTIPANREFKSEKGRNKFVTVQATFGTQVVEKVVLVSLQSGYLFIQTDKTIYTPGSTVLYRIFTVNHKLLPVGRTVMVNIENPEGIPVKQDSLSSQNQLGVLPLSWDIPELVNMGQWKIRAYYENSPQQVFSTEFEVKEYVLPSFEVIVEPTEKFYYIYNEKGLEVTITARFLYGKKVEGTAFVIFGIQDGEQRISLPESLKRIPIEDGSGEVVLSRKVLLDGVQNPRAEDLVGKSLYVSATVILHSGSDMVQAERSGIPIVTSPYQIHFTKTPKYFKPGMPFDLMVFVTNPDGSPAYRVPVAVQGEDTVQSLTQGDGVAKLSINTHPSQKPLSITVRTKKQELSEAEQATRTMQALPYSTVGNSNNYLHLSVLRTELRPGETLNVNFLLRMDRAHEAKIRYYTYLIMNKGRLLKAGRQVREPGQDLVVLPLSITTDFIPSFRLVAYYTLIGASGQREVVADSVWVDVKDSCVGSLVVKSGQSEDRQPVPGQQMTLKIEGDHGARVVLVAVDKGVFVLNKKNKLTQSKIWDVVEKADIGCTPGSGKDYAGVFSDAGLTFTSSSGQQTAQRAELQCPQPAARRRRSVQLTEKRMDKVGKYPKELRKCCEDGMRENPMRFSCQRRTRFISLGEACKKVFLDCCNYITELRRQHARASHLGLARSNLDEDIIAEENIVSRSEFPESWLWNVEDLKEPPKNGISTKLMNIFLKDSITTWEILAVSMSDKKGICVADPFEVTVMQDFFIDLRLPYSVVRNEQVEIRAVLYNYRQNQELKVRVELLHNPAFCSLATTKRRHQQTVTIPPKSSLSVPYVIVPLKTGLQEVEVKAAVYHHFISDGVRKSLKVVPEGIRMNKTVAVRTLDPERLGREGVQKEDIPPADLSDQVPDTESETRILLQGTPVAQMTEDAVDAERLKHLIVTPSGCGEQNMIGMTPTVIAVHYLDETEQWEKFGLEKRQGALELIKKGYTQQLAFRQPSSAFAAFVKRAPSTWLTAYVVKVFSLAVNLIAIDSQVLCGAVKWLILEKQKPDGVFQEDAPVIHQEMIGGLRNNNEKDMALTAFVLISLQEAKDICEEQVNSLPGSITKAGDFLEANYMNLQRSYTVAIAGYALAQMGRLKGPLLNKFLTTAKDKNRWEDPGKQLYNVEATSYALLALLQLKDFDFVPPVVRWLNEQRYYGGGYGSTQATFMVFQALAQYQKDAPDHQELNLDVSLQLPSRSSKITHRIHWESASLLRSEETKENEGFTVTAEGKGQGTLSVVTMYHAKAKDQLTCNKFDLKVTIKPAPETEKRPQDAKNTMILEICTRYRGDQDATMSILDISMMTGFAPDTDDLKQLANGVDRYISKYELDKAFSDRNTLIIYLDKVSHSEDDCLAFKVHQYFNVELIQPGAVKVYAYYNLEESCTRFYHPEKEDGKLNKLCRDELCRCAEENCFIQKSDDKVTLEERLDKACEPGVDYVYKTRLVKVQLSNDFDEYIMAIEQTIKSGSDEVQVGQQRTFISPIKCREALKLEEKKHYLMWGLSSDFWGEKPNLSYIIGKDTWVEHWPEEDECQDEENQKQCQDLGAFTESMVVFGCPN
# EXPERIMENT: SPR (Biacore T200), human C3 immobilised, peptide injected, 1:1 fit
Positions of bridges follow the written chain, without caps; N, C: chain ends. Non-standard residues stand in square brackets, D forms with d. Trp(1-Me) = Cn1cc(C[C@H](N)C(=O)O)c2ccccc21; AEEA = NCCOCCOCC(=O)O; Sar = CNCC(=O)O
Rule for this label: label 1 means Kd is less than 10 nM; label 0 means Kd is at least 10 nM.

BINDER: Ac-SEFCI[Trp(1-Me)]QDWGEHRC[Sar]EGE-{AEEA-AEEA-K(γGlu-Gly-γGlu-15-carboxy-pentadecanoyl)-NH2} (disulfide 4-14) [Compound 127]
CLASS_LABEL: label 1
//
BINDER: Ac-ICIWQDWGEHRCTGAES-NH2 (disulfide 2-12; SMILES CC[C@H](C)[C@H](NC(C)=O)C(=O)N[C@H]1CSSC[C@@H](C(=O)N[C@H](C(=O)NCC(=O)N[C@@H](C)C(=O)N[C@@H](CCC(=O)O)C(=O)N[C@@H](CO)C(N)=O)[C@@H](C)O)NC(=O)[C@H](CCCNC(=N)N)NC(=O)[C@H](Cc2c[nH]cn2)NC(=O)[C@H](CCC(=O)O)NC(=O)CNC(=O)[C@H](Cc2c[nH]c3ccccc23)NC(=O)[C@H](CC(=O)O)NC(=O)[C@H](CCC(N)=O)NC(=O)[C@H](Cc2c[nH]c3ccccc23)NC(=O)[C@H]([C@@H](C)CC)NC1=O) [Compound 15]
CLASS_LABEL: label 0
//
BINDER: Ac-SEFCI[Trp(1-Me)]QEWGEHRC[Sar]EGE-{AEEA-AEEA-K(γGlu-Gly-γGlu-17-carboxy-heptadecanoyl)-NH2} (disulfide 4-14) [Compound 124]
CLASS_LABEL: label 0
//
BINDER: Ac-ICIWQDWGEHRCT-NH2 (disulfide 2-12; SMILES CC[C@H](C)[C@H](NC(C)=O)C(=O)N[C@H]1CSSC[C@@H](C(=O)N[C@H](C(N)=O)[C@@H](C)O)NC(=O)[C@H](CCCNC(=N)N)NC(=O)[C@H](Cc2c[nH]cn2)NC(=O)[C@H](CCC(=O)O)NC(=O)CNC(=O)[C@H](Cc2c[nH]c3ccccc23)NC(=O)[C@H](CC(=O)O)NC(=O)[C@H](CCC(N)=O)NC(=O)[C@H](Cc2c[nH]c3ccccc23)NC(=O)[C@H]([C@@H](C)CC)NC1=O) [Compound 2]
CLASS_LABEL: label 0
//
BINDER: Ac-SEFCI[Trp(1-Me)]QDWGEHKC[Sar]EA-NH2 (disulfide 4-14; SMILES CC[C@H](C)[C@@H]1NC(=O)[C@@H](NC(=O)[C@H](Cc2ccccc2)NC(=O)[C@H](CCC(=O)O)NC(=O)[C@H](CO)NC(C)=O)CSSC[C@@H](C(=O)N(C)CC(=O)N[C@@H](CCC(=O)O)C(=O)N[C@@H](C)C(N)=O)NC(=O)[C@H](CCCCN)NC(=O)[C@H](Cc2c[nH]cn2)NC(=O)[C@H](CCC(=O)O)NC(=O)CNC(=O)[C@H](Cc2c[nH]c3ccccc23)NC(=O)[C@H](CC(=O)O)NC(=O)[C@H](CCC(N)=O)NC(=O)[C@H](Cc2cn(C)c3ccccc23)NC1=O) [Compound 86]
CLASS_LABEL: label 1
